# assay-target: T1, Human soluble IL-6R (human, UniProt P08887 20-358)
# T1 construct: Soluble recombinant form; biotinylated in some assays; also called hIL-6R; human IL-6R
# T1 sequence (looked up): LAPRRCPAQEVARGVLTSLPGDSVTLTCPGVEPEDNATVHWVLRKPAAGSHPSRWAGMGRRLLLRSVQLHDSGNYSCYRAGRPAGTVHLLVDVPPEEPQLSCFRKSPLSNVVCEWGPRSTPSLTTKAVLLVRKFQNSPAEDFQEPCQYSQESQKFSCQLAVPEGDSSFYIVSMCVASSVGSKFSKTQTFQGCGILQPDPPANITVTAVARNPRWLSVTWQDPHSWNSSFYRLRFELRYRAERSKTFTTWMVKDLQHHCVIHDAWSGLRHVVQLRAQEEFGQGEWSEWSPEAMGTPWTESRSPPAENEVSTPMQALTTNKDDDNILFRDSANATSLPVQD
# assay-remarks: inhibition of the IL-6/IL-6R interaction, summary table C-13
Quick reference: pIC50 of the listed items.
Scale: negative log10 of molar concentration, which is what pIC50 denotes.

Some binders with known pIC50 results, for comparison:
binder: IL6R07 (VHH, also called PMP33A3; not shown: C-terminal c-myc and (His)6 tags) VHH: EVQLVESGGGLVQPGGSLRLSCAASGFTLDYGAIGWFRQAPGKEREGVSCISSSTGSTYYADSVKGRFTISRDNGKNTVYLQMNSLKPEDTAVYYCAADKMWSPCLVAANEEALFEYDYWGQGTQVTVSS
pIC50: 8.84
//
binder: IL6R05 (VHH, also called PMP32E10; not shown: C-terminal c-myc and (His)6 tags) VHH: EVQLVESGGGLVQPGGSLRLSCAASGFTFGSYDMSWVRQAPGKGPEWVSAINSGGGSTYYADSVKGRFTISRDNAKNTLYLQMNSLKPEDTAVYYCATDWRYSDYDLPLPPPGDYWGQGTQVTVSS
pIC50: 9.20
//
binder: IL6R10 (VHH, also called PMP35C10; not shown: C-terminal c-myc and (His)6 tags) VHH: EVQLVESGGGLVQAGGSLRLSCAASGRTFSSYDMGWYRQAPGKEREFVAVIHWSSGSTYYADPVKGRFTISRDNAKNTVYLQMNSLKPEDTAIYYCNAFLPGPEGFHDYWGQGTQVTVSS
pIC50: 9.22

Exercise: pIC50 for IL6R08 (VHH, also called PMP34A12; not shown: C-terminal c-myc and (His)6 tags) VHH: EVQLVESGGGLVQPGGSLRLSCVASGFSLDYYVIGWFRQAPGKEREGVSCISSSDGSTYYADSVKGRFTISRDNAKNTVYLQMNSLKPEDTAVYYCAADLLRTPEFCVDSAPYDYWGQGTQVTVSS ?
Solution: 8.93

Exercise: Try IL6R09 (VHH, also called PMP34G9; not shown: C-terminal c-myc and (His)6 tags) VHH: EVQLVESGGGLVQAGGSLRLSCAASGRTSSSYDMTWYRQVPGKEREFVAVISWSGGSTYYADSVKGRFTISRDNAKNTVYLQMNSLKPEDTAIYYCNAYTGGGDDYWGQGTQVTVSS next.
Solution: 9.62

Exercise: Try IL6R11 (VHH, also called PMP35E11; not shown: C-terminal c-myc and (His)6 tags) VHH: EVQLVESGGGLVQAGGSLRLSCAASGFTFDDYAIGWFRQAPGKEHEGVSCISSSDGSTYYADSVKGRFTISSDNAKNTVYLQMNSLKPEDTAVYYCAAERDVPARSLCGSYYWYDYRGQGTQVTVSS next.
Solution: 9.80
